I'd appreciate it if you could supply binding signal values for the items below.
Target: SIX1-Q177R homeodomain (human, UniProt Q15475 108-198, Q177R)
Sequence: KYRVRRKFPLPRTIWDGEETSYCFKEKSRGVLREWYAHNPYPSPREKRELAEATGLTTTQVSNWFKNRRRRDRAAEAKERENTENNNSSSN
Assay: universal protein binding microarray; Universal all-10-mer PBM (8x60K, AMADID 030236), 300 nM GST-tagged protein, Alexa Fluor 488 anti-GST; buffer, salt, pH and temperature not stated (as in Berger); high values mean tight binding
Conditions: protein: ivt; tags: N-terminal GST; dsDNA, one strand shown
Over roughly 33,000 sequences, “e-score” has its median near -0.05; the highest 2% begin near 0.38. The entries come from a sample that favours the highest values as a whole.
# output: bare number, implied unit E-score

## Input Field request: binding signal | item: CGGACACG
## Output 0.373

## Input Field request: binding signal | item: AGCACACC
## Output 0.38

## Input Field request: binding signal | item: AACGGGGT
## Output 0.205

## Input Field request: binding signal | item: CGGGGTCC
## Output 0.241

## Input Field request: binding signal | item: CACTACAA
## Output 0.236

## Input Field request: binding signal | item: CGGACACC
## Output 0.48

## Input Field request: binding signal | item: ATGACACA
## Output 0.275

## Input Field request: binding signal | item: GACACCTC
## Output 0.483

## Input Field request: binding signal | item: ATGACGCC
## Output 0.172

## Input Field request: binding signal | item: AGGACACA
## Output 0.224

## Input Field request: binding signal | item: GGGACCCC
## Output 0.211

## Input Field request: binding signal | item: GTGACACA
## Output 0.333

## Input Field request: binding signal | item: AACTACAC
## Output 0.445

## Input Field request: binding signal | item: CCAGCACC
## Output 0.153

## Input Field request: binding signal | item: ATGACACC
## Output 0.492

## Input Field request: binding signal | item: CGGTGTCC
## Output 0.489

## Input Field request: binding signal | item: AGCACACT
## Output 0.163

## Input Field request: binding signal | item: AACACATA
## Output 0.17

## Input Field request: binding signal | item: CACTCCCA
## Output 0.273

## Input Field request: binding signal | item: ATCGGGCA
## Output 0.195

## Input Field request: binding signal | item: CCCCCAGG
## Output 0.213

## Input Field request: binding signal | item: CTGACACA
## Output 0.297

## Input Field request: binding signal | item: ACACTAAA
## Output 0.345

## Input Field request: binding signal | item: AACTACCC
## Output 0.151

## Input Field request: binding signal | item: AACACTTG
## Output 0.336

###

I'd appreciate it if you could supply binding signal values for the items below.
Biological target: SIX1-Q177R homeodomain (human, UniProt Q15475 108-198, Q177R)
Sequence: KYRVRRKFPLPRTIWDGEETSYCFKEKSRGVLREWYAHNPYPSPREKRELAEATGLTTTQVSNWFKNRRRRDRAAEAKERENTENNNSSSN
Assay: universal protein binding microarray; Universal all-10-mer PBM (8x60K, AMADID 030236), 300 nM GST-tagged protein, Alexa Fluor 488 anti-GST; buffer, salt, pH and temperature not stated (as in Berger); high values mean tight binding
Conditions: protein: ivt; tags: N-terminal GST; dsDNA, one strand shown
Whole data set: some 33,000 sequences, median “e-score” near -0.05, cut for the highest 2% near 0.38. The entries come from a sample that favours the highest values as a whole.
# output: bare number, implied unit E-score

## Input Which measured binding signal belongs to AACCCCAA , tested on SIX1-Q177R homeodomain (human, UniProt Q15475 108-198, Q177R)?
## Output 0.205

## Input Which measured binding signal belongs to AATTGGGG , tested on SIX1-Q177R homeodomain (human, UniProt Q15475 108-198, Q177R)?
## Output 0.17

## Input Which measured binding signal belongs to GCGTCCTA , tested on SIX1-Q177R homeodomain (human, UniProt Q15475 108-198, Q177R)?
## Output 0.168

## Input Which measured binding signal belongs to CACCAACA , tested on SIX1-Q177R homeodomain (human, UniProt Q15475 108-198, Q177R)?
## Output 0.377

## Input Which measured binding signal belongs to CACTTCCA , tested on SIX1-Q177R homeodomain (human, UniProt Q15475 108-198, Q177R)?
## Output 0.202

## Input Which measured binding signal belongs to AAACACTG , tested on SIX1-Q177R homeodomain (human, UniProt Q15475 108-198, Q177R)?
## Output 0.344

## Input Which measured binding signal belongs to CGATACCA , tested on SIX1-Q177R homeodomain (human, UniProt Q15475 108-198, Q177R)?
## Output 0.321

## Input Which measured binding signal belongs to AGCACCCG , tested on SIX1-Q177R homeodomain (human, UniProt Q15475 108-198, Q177R)?
## Output 0.262

## Input Which measured binding signal belongs to AGGGTATG , tested on SIX1-Q177R homeodomain (human, UniProt Q15475 108-198, Q177R)?
## Output 0.226

## Input Which measured binding signal belongs to CCCCCCGC , tested on SIX1-Q177R homeodomain (human, UniProt Q15475 108-198, Q177R)?
## Output 0.248

## Input Which measured binding signal belongs to AACACCCG , tested on SIX1-Q177R homeodomain (human, UniProt Q15475 108-198, Q177R)?
## Output 0.466

## Input Which measured binding signal belongs to ACCCCGAC , tested on SIX1-Q177R homeodomain (human, UniProt Q15475 108-198, Q177R)?
## Output 0.265

## Input Which measured binding signal belongs to CGATACCC , tested on SIX1-Q177R homeodomain (human, UniProt Q15475 108-198, Q177R)?
## Output 0.411

## Input Which measured binding signal belongs to GTATCTGA , tested on SIX1-Q177R homeodomain (human, UniProt Q15475 108-198, Q177R)?
## Output 0.236

## Input Which measured binding signal belongs to ACCCTCCC , tested on SIX1-Q177R homeodomain (human, UniProt Q15475 108-198, Q177R)?
## Output 0.211

## Input Which measured binding signal belongs to CACCTGCC , tested on SIX1-Q177R homeodomain (human, UniProt Q15475 108-198, Q177R)?
## Output 0.225

## Input Which measured binding signal belongs to CATGGTGG , tested on SIX1-Q177R homeodomain (human, UniProt Q15475 108-198, Q177R)?
## Output 0.192

## Input Which measured binding signal belongs to CAACACAA , tested on SIX1-Q177R homeodomain (human, UniProt Q15475 108-198, Q177R)?
## Output 0.182

## Input Which measured binding signal belongs to AGCACCCA , tested on SIX1-Q177R homeodomain (human, UniProt Q15475 108-198, Q177R)?
## Output 0.159

## Input Which measured binding signal belongs to TGTAGACA , tested on SIX1-Q177R homeodomain (human, UniProt Q15475 108-198, Q177R)?
## Output 0.257

## Input Which measured binding signal belongs to AACACCCT , tested on SIX1-Q177R homeodomain (human, UniProt Q15475 108-198, Q177R)?
## Output 0.461

## Input Which measured binding signal belongs to ACTGAGTG , tested on SIX1-Q177R homeodomain (human, UniProt Q15475 108-198, Q177R)?
## Output 0.177

## Input Which measured binding signal belongs to ACGAGGTG , tested on SIX1-Q177R homeodomain (human, UniProt Q15475 108-198, Q177R)?
## Output 0.251

## Input Which measured binding signal belongs to CAACACCG , tested on SIX1-Q177R homeodomain (human, UniProt Q15475 108-198, Q177R)?
## Output 0.467

## Input Which measured binding signal belongs to GTGTCCAA , tested on SIX1-Q177R homeodomain (human, UniProt Q15475 108-198, Q177R)?
## Output 0.419

## Input Which measured binding signal belongs to GGATACCC , tested on SIX1-Q177R homeodomain (human, UniProt Q15475 108-198, Q177R)?
## Output 0.403

## Input Which measured binding signal belongs to ACACAGCG , tested on SIX1-Q177R homeodomain (human, UniProt Q15475 108-198, Q177R)?
## Output 0.196

Reference source for all entries: paper PMC10668032
